# ASSAY PROCEDURE: folding enthalpy; higher = less favourable; fluorescence melt of hairpins on a sequencing array, two-state fit
# EXPERIMENTAL PARAMETERS: sodium 0.088 M
READOUT KIND: folding enthalpy (kcal/mol)

ORDERED RESIDUES: GATCAGATGGCTGATC ((((((....))))))
RECORDED MEASUREMENT: -30.4
//
ORDERED RESIDUES: GCCTAGCGAAAGCCTGGC (((..((....))..)))
RECORDED MEASUREMENT: -19.6
//
ORDERED RESIDUES: GTAACCCGAAAGGGGTAC (((.(((....))).)))
RECORDED MEASUREMENT: -30.9
//
ORDERED RESIDUES: GGCCAGGGAAACCCAGCC (((..((....))..)))
RECORDED MEASUREMENT: -30.5
//
ORDERED RESIDUES: GGGGTAGGAAACTACCTC (.(((((....))))).)
RECORDED MEASUREMENT: -20
//
ORDERED RESIDUES: CGTAACGGAAACGTAACG (((.(((....))).)))
RECORDED MEASUREMENT: -29.6
